Test system: HCT-116
assay-info: Antiproliferative activity against human HCT116 cells by MTT assay
Assay type: functional, cell-based
Binary label based on IC50 with cut-off 5 µM: below gives 1, not below gives 0.

- smiles: "Nc1ccccc1NC(=O)/C=C/c1ccc(NCc2ccncc2)cc1"
  target-system: "HCT-116"
  classification: 1
- smiles: "Nc1ccccc1NC(=O)/C=C/c1ccc(NCc2ccc(OC(F)(F)F)cc2)nc1"
  target-system: "HCT-116"
  classification: 1
- smiles: "COc1cccc(NCc2ccc(/C=C/C(=O)Nc3ccccc3N)cc2)c1"
  target-system: "HCT-116"
  classification: 0
- smiles: "COc1ccc(NCc2ccc(C(=O)Nc3ccccc3N)cc2)cc1"
  target-system: "HCT-116"
  classification: 1
- smiles: "Nc1ccccc1NC(=O)/C=C/c1ccc(CNc2ccccc2)cc1"
  target-system: "HCT-116"
  classification: 0
- smiles: "Nc1ccccc1NC(=O)/C=C/c1ccc(NCc2ccc(OC(F)(F)F)cc2)cc1"
  target-system: "HCT-116"
  classification: 0
- smiles: "Nc1ccccc1NC(=O)/C=C/c1ccc(NCc2ccc([N+](=O)[O-])cc2)cc1"
  target-system: "HCT-116"
  classification: 0
- smiles: "COc1cc(CNc2ccc(C(=O)Nc3ccccc3N)cc2)cc(OC)c1OC"
  target-system: "HCT-116"
  classification: 1
